Can you tell me IC50 for the items I'm about to list?
# subject-of-test: IR (NIH-3T3 cells over expressing human IGF-1R or IR) (Homo sapiens)
# Sequence (P06213 28-1382): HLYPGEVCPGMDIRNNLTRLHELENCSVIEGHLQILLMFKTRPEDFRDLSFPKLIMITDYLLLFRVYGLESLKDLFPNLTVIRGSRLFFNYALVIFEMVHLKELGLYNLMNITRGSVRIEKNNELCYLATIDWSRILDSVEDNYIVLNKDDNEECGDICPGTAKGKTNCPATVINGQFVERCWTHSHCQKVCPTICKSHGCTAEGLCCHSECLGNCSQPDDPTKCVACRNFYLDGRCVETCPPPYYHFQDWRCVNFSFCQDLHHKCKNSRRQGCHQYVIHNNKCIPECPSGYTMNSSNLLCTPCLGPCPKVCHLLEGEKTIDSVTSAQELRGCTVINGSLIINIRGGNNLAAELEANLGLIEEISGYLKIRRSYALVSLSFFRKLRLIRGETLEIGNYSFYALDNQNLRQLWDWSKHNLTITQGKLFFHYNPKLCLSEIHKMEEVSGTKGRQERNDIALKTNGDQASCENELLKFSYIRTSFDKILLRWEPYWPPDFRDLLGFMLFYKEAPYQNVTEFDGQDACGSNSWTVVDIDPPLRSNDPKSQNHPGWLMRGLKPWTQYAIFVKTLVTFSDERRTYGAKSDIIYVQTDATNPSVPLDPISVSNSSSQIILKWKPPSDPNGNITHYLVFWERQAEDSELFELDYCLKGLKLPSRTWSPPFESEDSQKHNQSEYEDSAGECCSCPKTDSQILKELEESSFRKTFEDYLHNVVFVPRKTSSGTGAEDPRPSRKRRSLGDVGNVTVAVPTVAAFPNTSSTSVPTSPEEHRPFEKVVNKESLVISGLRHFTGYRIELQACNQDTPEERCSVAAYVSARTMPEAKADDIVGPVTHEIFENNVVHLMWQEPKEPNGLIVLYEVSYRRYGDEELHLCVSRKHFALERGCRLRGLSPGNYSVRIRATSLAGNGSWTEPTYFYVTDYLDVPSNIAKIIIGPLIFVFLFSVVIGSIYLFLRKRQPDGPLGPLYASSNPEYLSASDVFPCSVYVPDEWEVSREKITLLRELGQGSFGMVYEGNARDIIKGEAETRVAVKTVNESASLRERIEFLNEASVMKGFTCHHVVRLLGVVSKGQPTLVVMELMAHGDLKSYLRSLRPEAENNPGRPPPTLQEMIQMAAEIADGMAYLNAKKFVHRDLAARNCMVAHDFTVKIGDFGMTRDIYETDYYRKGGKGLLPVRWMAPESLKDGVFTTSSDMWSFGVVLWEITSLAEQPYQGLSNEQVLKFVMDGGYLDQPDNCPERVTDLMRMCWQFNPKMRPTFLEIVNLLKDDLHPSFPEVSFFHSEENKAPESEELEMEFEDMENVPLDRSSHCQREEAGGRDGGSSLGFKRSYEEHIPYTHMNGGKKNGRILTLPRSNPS
# assay-comment: IR cellular autophosphorylation (DELFIA)
# test-context: NIH-3T3 cells over expressing IR, insulin stimulated

Simply: "CCc1cc(Nc2nccc(-c3c(-c4ccc(OC)c(C(=O)Nc5c(F)cccc5F)c4)nc4ccccn34)n2)c(OC)cc1N1CCC(CCS(C)(=O)=O)CC1" , IR (NIH-3T3 cells over expressing human IGF-1R or IR) (Homo sapiens), IC50 = < 0.1 µM

Simply: "CCOc1ccc(-c2nc3ccccn3c2-c2ccnc(Nc3cc(C)c(N4CCN(CCS(C)(=O)=O)CC4)cc3OC)n2)cc1C(=O)Nc1c(F)cccc1F" , IR (NIH-3T3 cells over expressing human IGF-1R or IR) (Homo sapiens), IC50 = < 0.1 µM

Simply: "CCOc1ccc(-c2nc3ccccn3c2-c2ccnc(Nc3cc(CC)c(N4CCC(CCS(C)(=O)=O)CC4)cc3OC)n2)cc1C(=O)Nc1c(F)cccc1F" , IR (NIH-3T3 cells over expressing human IGF-1R or IR) (Homo sapiens), IC50 = < 0.1 µM

Simply: "CCCN1CCN(c2ccc(Nc3nccc(-c4c(-c5ccc(OCC)c(C(=O)Nc6c(F)cccc6F)c5)nc5ccccn45)n3)c(OCC)c2)CC1" , IR (NIH-3T3 cells over expressing human IGF-1R or IR) (Homo sapiens), IC50 = < 0.1 µM

Simply: "COc1ccc(-c2nc3ccccn3c2-c2ccnc(Nc3cccc(OCCN(C)C)c3)n2)cc1C(=O)Nc1c(F)cccc1F" , IR (NIH-3T3 cells over expressing human IGF-1R or IR) (Homo sapiens), IC50 = 0.1 to 0.5 µM
